These measurements were taken from PubChem BioAssay AID504652.

Each item that follows carries a reported activity change, negative = inhibition.
# target-entity: D(1A) dopamine receptor (Homo sapiens) (UniProt P21728)
# Sequence (P21728 whole entry, looked up): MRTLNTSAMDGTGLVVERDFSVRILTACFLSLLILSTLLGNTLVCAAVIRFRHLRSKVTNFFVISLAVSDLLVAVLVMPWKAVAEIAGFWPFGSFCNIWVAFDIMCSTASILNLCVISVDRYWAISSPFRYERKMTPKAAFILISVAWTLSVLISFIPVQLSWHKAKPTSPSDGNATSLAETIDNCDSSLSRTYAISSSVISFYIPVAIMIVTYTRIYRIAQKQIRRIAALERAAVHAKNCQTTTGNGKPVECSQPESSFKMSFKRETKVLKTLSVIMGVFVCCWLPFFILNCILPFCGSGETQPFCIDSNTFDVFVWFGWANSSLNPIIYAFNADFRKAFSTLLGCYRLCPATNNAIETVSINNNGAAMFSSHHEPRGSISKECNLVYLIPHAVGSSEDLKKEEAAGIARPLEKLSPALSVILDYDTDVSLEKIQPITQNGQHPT
# protocol: Antagonist of Human D 1 Dopamine Receptor: qHTS; also: % is scaled to controls: 0 for no effect and ±100 for the full control effect
# run-parameters: HEK293 TREx D1 cells, calcium flux, dopamine EC80; at 10 µM; hits give low values
Among all 360,000 compounds or so, about 11,000 (3.1%) were called active. The list comes from a sample in which actives are over-represented; it also holds close analogues and randomly drawn compounds.

// solved cases for activity change, negative = inhibition follow
# compound, activity change, negative = inhibition
records = [
    ("O=C(Oc1ccc(C(=S)N2CCOCC2)cc1)c1ccc(F)cc1", "-12.9% (inactive)"),
    ("O=C(c1ccc(F)cc1)n1cc(C(=S)N2CCOCC2)c2ccccc21", "-30.2% (active)"),
    ("Cn1nc(-c2ccccc2)c(CO)c1Sc1ccccc1", "-64.5% (active)"),
]

Endpoint output: activity change, negative = inhibition of `O=C(CSc1nc(-c2cccc(F)c2)[nH]c1-c1ccccc1)Nc1ccc2c(c1)OCO2` . Value?
-4.86% (inactive)

activity change, negative = inhibition lookup needed for `O=C(OCC(=O)N1CCc2ccccc21)c1ccc([N+](=O)[O-])cc1` , thanks.
-13% (inactive)

Quick check: activity change, negative = inhibition of COc1ccc(C(CNC(=O)COc2ccc([N+](=O)[O-])cc2)N2CCCCC2)cc1 (configuration not stated) ?
6.98% (inactive)

====

# target-entity: D(1A) dopamine receptor (Homo sapiens) (UniProt P21728)
# protocol: Antagonist of Human D 1 Dopamine Receptor: qHTS; also: % is scaled to controls: 0 for no effect and ±100 for the full control effect
# run-parameters: HEK293 TREx D1 cells, calcium flux, dopamine EC80; at 10 µM
Screen size: about 360,000 compounds; about 11,000 (3.1%) were called active. Rule as the data show it: active = activity change below about -30%; inactive = the rest. The sample as a whole holds a higher share of actives than the screen did.
Result category, one only: active, inactive

# molecule, assigned-label
rows = [
    ("O=C(NCc1ccco1)c1nn2cccnc2c1Cl", "inactive"),
    ("O=C(NCc1ccc(Cl)cc1)c1cc2c(nc3sccn32)s1", "active"),
    ("Cc1csc2nc(COC(=O)c3ccc(NC(=O)COc4ccccc4F)cc3)cc(=O)n12", "inactive"),
    ("Cc1cc(OCCCN2CCN(Cc3ccccc3)CC2)ccc1[N+](=O)[O-]", "active"),
]

Could you please tell me the result logged for `O=C(NCc1ccc2c(c1)OCO2)c1c(O)nc2sccn2c1=O` in this assay?
inactive

Could you please tell me the result logged for `O=C(NCc1ccco1)c1cc2sccc2n1Cc1ccc(F)cc1` in this assay?
inactive

Hi, do you know how `Cc1cc(OCC(=O)NC2CCN(C)CC2)ccc1[N+](=O)[O-]` came out in this test?
inactive

Look up the recorded call for COc1ccc(CC(=O)N2CC(=O)Nc3ccc(Br)cc3C2c2ccc(F)cc2)cc1OC (stereo unspecified) in this test.
inactive

====

# target-entity: D(1A) dopamine receptor (Homo sapiens) (UniProt P21728)
# protocol: Antagonist of Human D 1 Dopamine Receptor: qHTS; also: % is scaled to controls: 0 for no effect and ±100 for the full control effect
# run-parameters: HEK293 TREx D1 cells, calcium flux, dopamine EC80; at 10 µM
# Procedure: Dopamine receptors (DARs) are involved in the etiology and/or therapy of a number of neuropsychiatric and endocrine disorders. […] Freshly passaged cells are plated in 1536 well black, clear bottom plates at a density of 4000 cells/well in 3 ul of complete media containing 1x tetracycline inducer. […] Agonist read: A 10 cycle (1 second/cycle) baseline measurement is taken and then the FDSS online 1536 pintool delivers 23 nl of compound library (as well as dopamine controls) to the plate. […]
In all, about 360,000 compounds went through this assay and about 11,000 (3.1%) were called active. No stated cut-off is given here; in the data, active means activity change below about -30%; inactive means the rest. The sample holds actives, similar compounds and a random draw of the others, so the mix is not that of the screen.
Your response should consist of one outcome taken from yes (1) (active), no (0) (inactive)

# molecule, target-entity, assigned-label
measured = [
    ("CCCCCCCCCCCC(=O)O", "D(1A) dopamine receptor (Homo sapiens) (UniProt P21728)", "no (0)"),
    ("COc1ccccc1-c1noc(-c2ccc(NCc3ccccc3)c([N+](=O)[O-])c2)n1", "D(1A) dopamine receptor (Homo sapiens) (UniProt P21728)", "no (0)"),
    ("NC(=O)NCCCC(=O)O", "D(1A) dopamine receptor (Homo sapiens) (UniProt P21728)", "yes (1)"),
    ("Cc1cccc(OCC(=O)NCC(=O)N/N=C/c2ccc(N(C)C)cc2)c1", "D(1A) dopamine receptor (Homo sapiens) (UniProt P21728)", "yes (1)"),
]

Identify the outcome logged in this assay for the molecule shown: `CC1CCN(c2ccc([N+](=O)[O-])c(SCCO)c2)CC1`
yes (1)

Dear colleague, could you share the recorded outcome for `O=C(NC1CCCCC1)c1ccc(Cn2c(SCc3ccccc3)nc3cccnc32)cc1` when you have a moment?
no (0)

What call does the record list for `COc1cccc(Cn2c(CNS(=O)(=O)c3ccc(Cl)s3)nc3cccnc32)c1` ?
no (0)

Could you please tell me the result logged for `CCn1cc2nc(SCc3ccccc3Cl)n(CCc3ccccc3)c(=O)c2n1` in this assay?
no (0)

Lab log entry: `O=c1cc2nc(-c3ccccc3)nc(SCCOc3ccc(Cl)cc3)n2[nH]1` — outcome as called in the assay?
no (0)

Dear colleague, could you share the recorded outcome for CCCn1c2ccccc2c2cnn(CC(=O)N3CCCC(C(=O)OCC)C3)c(=O)c21 (stereo not drawn) when you have a moment?
no (0)

====

# target-entity: D(1A) dopamine receptor (Homo sapiens)
# protocol: Antagonist of Human D 1 Dopamine Receptor: qHTS; also: % is scaled to controls: 0 for no effect and ±100 for the full control effect
# run-parameters: HEK293 TREx D1 cells, calcium flux, dopamine EC80; at 10 µM; hits give low values
In all, about 360,000 compounds went through this assay and about 11,000 (3.1%) were called active. This excerpt belongs to a sample that is enriched for actives.
endpoint-name: activity change, negative = inhibition

Example entries begin here.
# compound, activity change, negative = inhibition
records = [
    ("CC(C)(CCl)C(=O)Nc1ccc(Sc2ccc(F)cc2)cc1", "-27.2% (inactive)"),
    ("O=C(Nc1ccccc1)OCc1cc(-c2ccc(Cl)cc2)on1", "-32.2% (active)"),
    ("O=C(CCN1C(=O)[C@H]2CC=CC[C@H]2C1=O)NCc1nc(-c2ccccc2)no1", "-34.2% (active)"),
    ("Cn1c(=O)oc2cc(S(=O)(=O)N3CCC(C(=O)Nc4ccc(OC(F)(F)F)cc4)CC3)ccc21", "-36.4% (active)"),
    ("Cc1cccc(NC(=O)Cn2c(=O)n(CCC(C)C)c(=O)c3cccnc32)c1", "38.2% (inactive)"),
    ("O=C(NCc1ccccc1Cl)c1cccn1-c1nnc(N2CCCCC2)s1", "-10.7% (inactive)"),
]

Consider the compound shown here: Cc1ccc(NC2=C(Cl)C(=O)OC2OC(=O)c2ccccc2C)cc1 (configuration not stated) What is its recorded activity change, negative = inhibition?
-33.8% (active)

Looking for the measured activity change, negative = inhibition of `Cc1ccc2nc(N3CCN(c4cccc(Cl)c4)CC3)c3nnnn3c2c1` , can you help?
-5.5% (inactive)

Sample `COc1ccc(OCCn2cc(C(=O)C3CCCCC3)c3ccccc32)cc1` — what was its activity change, negative = inhibition?
10.3% (inactive)

====

# target-entity: D(1A) dopamine receptor (Homo sapiens)
# protocol: Antagonist of Human D 1 Dopamine Receptor: qHTS; also: % is scaled to controls: 0 for no effect and ±100 for the full control effect
# run-parameters: HEK293 TREx D1 cells, calcium flux, dopamine EC80; at 10 µM; hits give low values
The whole screen tested about 360,000 compounds, of which about 11,000 (3.1%) were called active. The list comes from a sample in which actives are over-represented; it also holds close analogues and randomly drawn compounds.
endpoint-name: activity change, negative = inhibition (%)
Give just the number in %; leave the unit off.

These recorded examples may help you get a feel for the data.
# molecule, target-entity, activity change, negative = inhibition [%]
measured = [
    ("O=S(=O)(NCC(c1ccccc1)N1CCc2ccccc21)c1ccccc1 (stereo unspecified)", "D(1A) dopamine receptor (Homo sapiens)", 6.46),
    ("CCn1c(CNC(=O)C23CC4CC(CC(C4)C2)C3)nnc1SCC(=O)Nc1ccc(OC)cc1", "D(1A) dopamine receptor (Homo sapiens)", 17.4),
    ("CCOC(=O)N1CCN(S(=O)(=O)c2ccc(Br)cc2)CC1", "D(1A) dopamine receptor (Homo sapiens)", -1.63),
    ("Cc1cc(C)n(-c2c(F)c(F)c(COC(=O)c3ccccc3)c(F)c2F)n1", "D(1A) dopamine receptor (Homo sapiens)", -44),
    ("CCc1ccccc1N(C)C(=O)C1CCCN(c2ncnc3onc(-c4ccc(F)cc4)c23)C1 (stereo unspecified)", "D(1A) dopamine receptor (Homo sapiens)", -2.86),
    ("Cn1ncc(N2CCN(S(=O)(=O)c3ccc(Br)cc3)CC2)c(Cl)c1=O", "D(1A) dopamine receptor (Homo sapiens)", -30.4),
    ("Cc1ccc(S(=O)(=O)N2CCN(C)CC2)cc1", "D(1A) dopamine receptor (Homo sapiens)", 0.986),
    ("CC1CCN(C(=O)c2cccc(S(=O)(=O)N3CCCc4ccccc43)c2)CC1", "D(1A) dopamine receptor (Homo sapiens)", -43.6),
    ("COc1ccc(S(=O)(=O)NCC(c2ccc(N(C)C)cc2)N2CCc3ccccc32)cc1OC (stereo unspecified)", "D(1A) dopamine receptor (Homo sapiens)", -64.5),
    ("CC(C)(C)OC(=O)N1CCC(c2c(C(=O)NCCc3ccsc3)cnn2-c2ccc(F)cc2F)CC1", "D(1A) dopamine receptor (Homo sapiens)", -6.33),
]

Given the entry `CN1CCN(S(=O)(=O)c2cccc(C(=O)N3CCc4ccccc43)c2)CC1` , report its measured activity change, negative = inhibition.
-0.291

Please look up its activity change, negative = inhibition: `NS(=O)(=O)c1ccc(CNC(=O)c2cccc(S(=O)(=O)N3CCc4ccccc43)c2)cc1`
-4.68

For `Cc1cccc(N2CCN(S(=O)(=O)c3ccc4[nH]c5c(c4c3)CCCCC5)CC2)c1C` , what is its reported activity change, negative = inhibition?
0.754

Which activity change, negative = inhibition is listed for `NS(=O)(=O)c1ccc(CNC(=O)c2cnccn2)cc1` ?
9.99

Item `O=C(NCCNc1ccc([N+](=O)[O-])cc1)c1cccc2c(Br)cccc12` has what recorded activity change, negative = inhibition?
-63.4

Sample `CCOC(=O)c1cnc(-n2nc(C)cc2C)nc1NNc1cc(C)nc(-c2ccccc2)n1` — what was its activity change, negative = inhibition?
-5.98
